# assayOverview: Luminescence Cell-Based Dose Response HTS to Identify Inhibitors of 5'UTR Stem-Loop Driven Prion Protein mRNA Translation in H4 Neuroglioblastoma Cells. [Related pubchem assays: 1827 (Project Summary), 1813 (Primary HTS)]
# Format: functional
Activity calls are given as the source filed them.
propertyName: EC50

compound=Cc1c([N+](=O)[O-])c(N)nn1C propertyname=EC50 readoutvalue="> 120 µM (not active)"
compound=CCOC(=O)N1CCN(S(=O)(=O)c2ccc(C(=O)Nc3ccc(F)cc3F)cc2)CC1 propertyname=EC50 readoutvalue="> 120 µM (not active)"
compound="CC(Oc1cccc(Cl)c1)C(=O)Nc1nc(-c2ccccn2)cs1 (stereo unspecified)" propertyname=EC50 readoutvalue="11.9 µM (active)"
compound=Cc1cc(C(=O)COc2cccnc2[N+](=O)[O-])c(C)n1-c1ccccc1F propertyname=EC50 readoutvalue="16.8 µM (active)"
compound=Cc1csc(NC(=O)c2cc3c(s2)CCCCC3)n1 propertyname=EC50 readoutvalue="2.57 µM (active)"
compound=COc1ccc(/C=C2/SC(=S)N(CCCC(=O)Nc3ccccc3C(=O)O)C2=O)cc1 propertyname=EC50 readoutvalue="11.2 µM (active)"

* * *

# assayOverview: alpha-synuclein stem-loop luciferase translation blockers – H4 neuroglioma cells, luminescence, confirmation (AID 1988)
# Assay type: functional, cell-based
Calls of active or inactive are those of the source.
# reported EC50; entries follow
propertyName: EC50

molecule=Cc1nc2cc(NC(=O)c3ccc([N+](=O)[O-])s3)ccc2s1 readoutvalue="0.95 µM (active)"
molecule=O=C(NC1CC1)C1=C[C@@H](c2coc3ccccc3c2=O)C[C@@H](OCc2ccc(CO)cc2)O1 readoutvalue="> 120 µM (not active)"
molecule="Cc1[nH]c2ccccc2c1C(=O)CN1C(=O)NC2(CC(C)CC(C)(C)C2)C1=O (stereo unspecified)" readoutvalue="10.8 µM (active)"
molecule=CCOC(=O)N1CCN(S(=O)(=O)c2ccc(C(=O)Nc3ccc(F)cc3F)cc2)CC1 readoutvalue="7.91 µM (active)"
molecule=Cc1csc(NC(=O)c2cc3c(s2)CCCCC3)n1 readoutvalue="3.58 µM (active)"
molecule=Cc1cc(C(=O)COc2cccnc2[N+](=O)[O-])c(C)n1-c1ccccc1F readoutvalue="0.791 µM (active)"

* * *

# target: Corticotropin-releasing factor receptor 2/Corticotropin-releasing factor-binding protein (Homo sapiens, UniProt P24387+Q13324)
# Sequence (Q13324 whole entry): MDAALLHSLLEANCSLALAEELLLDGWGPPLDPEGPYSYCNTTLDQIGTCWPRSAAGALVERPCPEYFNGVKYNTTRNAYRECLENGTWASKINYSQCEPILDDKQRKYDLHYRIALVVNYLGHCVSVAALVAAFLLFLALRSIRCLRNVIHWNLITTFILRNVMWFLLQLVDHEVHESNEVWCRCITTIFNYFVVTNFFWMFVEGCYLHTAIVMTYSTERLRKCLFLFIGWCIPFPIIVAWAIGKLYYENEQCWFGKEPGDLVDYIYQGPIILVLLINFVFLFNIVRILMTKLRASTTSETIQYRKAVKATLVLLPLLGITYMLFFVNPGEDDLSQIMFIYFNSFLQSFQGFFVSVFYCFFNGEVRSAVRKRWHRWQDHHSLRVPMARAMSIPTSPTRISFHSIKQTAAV
# Sequence (P24387 whole entry): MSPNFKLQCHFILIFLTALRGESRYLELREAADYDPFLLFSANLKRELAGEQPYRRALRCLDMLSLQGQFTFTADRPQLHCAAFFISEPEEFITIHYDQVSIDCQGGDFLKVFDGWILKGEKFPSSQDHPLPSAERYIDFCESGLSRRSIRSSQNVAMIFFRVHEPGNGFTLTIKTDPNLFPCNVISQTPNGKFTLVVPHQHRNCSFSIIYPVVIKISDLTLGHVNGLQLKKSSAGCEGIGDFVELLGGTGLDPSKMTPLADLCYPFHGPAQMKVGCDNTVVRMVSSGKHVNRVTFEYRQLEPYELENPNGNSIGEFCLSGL
# assayOverview: activators of CRF receptor 2 with binding protein – uHTS hits, confirmation (AID 602473)
# Assay type: functional
# testParameters: read-out: EC50_Mean
Calls of active or inactive are those of the source.
Classes used: 1 for active, -1 for inactive

molecule="COCCN1CC(=O)N(c2cccc(C)c2C)C(c2ccc(Cl)cc2)C1=O (configuration not stated)" categorylabel=-1
molecule=CCc1ccc(-c2cc(C)no2)cc1S(=O)(=O)Nc1ccc(Cl)cn1 categorylabel=-1
molecule=O=C1NC[C@@H](c2ccccc2)OC(=O)[C@H](Cc2ccc(F)cc2)CC/C=C/C[C@H]1CC(=O)N(CCO)Cc1ccccc1 categorylabel=-1
molecule="CCCC1CC(C#N)N(N(C)C)C1=C(C#N)C#N (configuration not stated)" categorylabel=-1
molecule=Cc1cccc(CSc2ccc3nnc(-c4cccs4)n3n2)c1 categorylabel=-1
molecule=C=CCC1=C/C(=C\c2c(N)n3nc(CC(=O)N4CCCC4)sc3nc2=O)C=C(OC)C1=O categorylabel=1
molecule=COc1ccccc1/C=C/C(=O)N1CCOCC1 categorylabel=-1
molecule=O=C1CSC(=S)N1N=Cc1c(F)cccc1Cl categorylabel=-1
molecule="Cc1ccc(NC(=O)c2ncn(CCCNCC3CCCO3)n2)cc1C (configuration not stated)" categorylabel=-1
molecule=CCc1nnc(NC(=O)CSc2nnnn2-c2cccc(C(C)=O)c2)s1 categorylabel=-1
molecule="CSCCC(NC(=O)c1ccccc1)C(=O)N/N=C(\\C)c1ccccc1 (configuration not stated)" categorylabel=1
molecule="CCC(C)NC(=O)Cn1cnc2sc(C)c(S(=O)(=O)N3CCCCC3)c2c1=O (configuration not stated)" categorylabel=-1

* * *

Lab note: AC50 readings collected with Cytochrome P450 1A2 (Homo sapiens, UniProt P05177) for the following molecules.
Sequence (P05177 whole entry): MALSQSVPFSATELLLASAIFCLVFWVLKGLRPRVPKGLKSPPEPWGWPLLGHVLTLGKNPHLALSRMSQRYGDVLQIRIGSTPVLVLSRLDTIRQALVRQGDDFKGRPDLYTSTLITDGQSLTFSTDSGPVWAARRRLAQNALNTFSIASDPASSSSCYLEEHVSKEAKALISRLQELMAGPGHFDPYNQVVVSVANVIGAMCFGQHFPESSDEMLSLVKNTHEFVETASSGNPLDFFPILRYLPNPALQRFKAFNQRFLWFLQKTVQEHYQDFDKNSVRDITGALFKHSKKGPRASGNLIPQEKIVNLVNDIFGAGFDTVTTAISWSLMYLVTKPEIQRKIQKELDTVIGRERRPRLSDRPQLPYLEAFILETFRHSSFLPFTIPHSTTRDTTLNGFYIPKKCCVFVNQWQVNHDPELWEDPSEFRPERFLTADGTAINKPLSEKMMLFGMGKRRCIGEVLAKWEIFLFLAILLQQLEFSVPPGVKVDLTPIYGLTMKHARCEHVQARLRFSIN
propertyName: AC50

molecule=COC(=O)[C@@]1(Cc2ccccc2)[C@H]2c3cc(C(=O)N4CCCC4)n(Cc4c(CO)ncc(C)c4O)c3C[C@H]2CN1C(=O)c1ccccc1 readoutvalue="5.01 µM (inconclusive)"
molecule="CC(=O)Nc1cccc(C(=O)OC(C(=O)c2ccc(C)c(C)c2)c2ccccc2)c1 (configuration not stated)" readoutvalue="22.4 µM (inconclusive)"
molecule=Cc1ccc(Cc2c(C)nc3nc(SCC(=O)NCc4ccco4)nn3c2C)cc1 readoutvalue="0.00631 µM (inconclusive)"
molecule=Oc1c(C(O)(c2ccccc2)c2ccc3ccccc3c2O)ccc2ccccc12 readoutvalue="1 µM (inconclusive)"
molecule=COc1ccc(S(=O)(=O)N2CCC(NC(=O)Nc3ccc(C)cc3)CC2)cc1 readoutvalue="31.6 µM (inconclusive)"
molecule=Cl/C(=N\c1cccc2ccccc12)N(c1ccccc1)c1ccccc1 readoutvalue="1 µM (inconclusive)"
molecule=CCNc1ncc2nc(-c3ccc(Cl)cc3)c(=O)n(-c3ccccc3)c2n1 readoutvalue="1 µM (inconclusive)"
molecule=CC(C)Oc1ccc(C(=O)Nc2ccc(NC(=O)c3ccco3)c(Cl)c2)cc1 readoutvalue="22.4 µM (inconclusive)"
molecule=O=C(O)[C@H]1CN(CCCP(=O)(O)O)CCN1 readoutvalue="39.8 µM (inconclusive)"
molecule=O=C(CSc1nnc(CNc2ccc(F)cc2)o1)N1c2ccccc2Sc2ccccc21 readoutvalue="10 µM (inconclusive)"
molecule=CC1(C)Cc2c(sc3c2C(=O)N(c2ccccc2)C2=NCCN23)CS1 readoutvalue="22.4 µM (inconclusive)"
molecule=CC(=O)NCCNc1ncnc2ccc(-c3ccc(C(=O)N(C)C)cc3)cc12 readoutvalue="25.1 µM (inconclusive)"

* * *

# target: Fatty acid synthase (Homo sapiens)
# Sequence (P49327 whole entry): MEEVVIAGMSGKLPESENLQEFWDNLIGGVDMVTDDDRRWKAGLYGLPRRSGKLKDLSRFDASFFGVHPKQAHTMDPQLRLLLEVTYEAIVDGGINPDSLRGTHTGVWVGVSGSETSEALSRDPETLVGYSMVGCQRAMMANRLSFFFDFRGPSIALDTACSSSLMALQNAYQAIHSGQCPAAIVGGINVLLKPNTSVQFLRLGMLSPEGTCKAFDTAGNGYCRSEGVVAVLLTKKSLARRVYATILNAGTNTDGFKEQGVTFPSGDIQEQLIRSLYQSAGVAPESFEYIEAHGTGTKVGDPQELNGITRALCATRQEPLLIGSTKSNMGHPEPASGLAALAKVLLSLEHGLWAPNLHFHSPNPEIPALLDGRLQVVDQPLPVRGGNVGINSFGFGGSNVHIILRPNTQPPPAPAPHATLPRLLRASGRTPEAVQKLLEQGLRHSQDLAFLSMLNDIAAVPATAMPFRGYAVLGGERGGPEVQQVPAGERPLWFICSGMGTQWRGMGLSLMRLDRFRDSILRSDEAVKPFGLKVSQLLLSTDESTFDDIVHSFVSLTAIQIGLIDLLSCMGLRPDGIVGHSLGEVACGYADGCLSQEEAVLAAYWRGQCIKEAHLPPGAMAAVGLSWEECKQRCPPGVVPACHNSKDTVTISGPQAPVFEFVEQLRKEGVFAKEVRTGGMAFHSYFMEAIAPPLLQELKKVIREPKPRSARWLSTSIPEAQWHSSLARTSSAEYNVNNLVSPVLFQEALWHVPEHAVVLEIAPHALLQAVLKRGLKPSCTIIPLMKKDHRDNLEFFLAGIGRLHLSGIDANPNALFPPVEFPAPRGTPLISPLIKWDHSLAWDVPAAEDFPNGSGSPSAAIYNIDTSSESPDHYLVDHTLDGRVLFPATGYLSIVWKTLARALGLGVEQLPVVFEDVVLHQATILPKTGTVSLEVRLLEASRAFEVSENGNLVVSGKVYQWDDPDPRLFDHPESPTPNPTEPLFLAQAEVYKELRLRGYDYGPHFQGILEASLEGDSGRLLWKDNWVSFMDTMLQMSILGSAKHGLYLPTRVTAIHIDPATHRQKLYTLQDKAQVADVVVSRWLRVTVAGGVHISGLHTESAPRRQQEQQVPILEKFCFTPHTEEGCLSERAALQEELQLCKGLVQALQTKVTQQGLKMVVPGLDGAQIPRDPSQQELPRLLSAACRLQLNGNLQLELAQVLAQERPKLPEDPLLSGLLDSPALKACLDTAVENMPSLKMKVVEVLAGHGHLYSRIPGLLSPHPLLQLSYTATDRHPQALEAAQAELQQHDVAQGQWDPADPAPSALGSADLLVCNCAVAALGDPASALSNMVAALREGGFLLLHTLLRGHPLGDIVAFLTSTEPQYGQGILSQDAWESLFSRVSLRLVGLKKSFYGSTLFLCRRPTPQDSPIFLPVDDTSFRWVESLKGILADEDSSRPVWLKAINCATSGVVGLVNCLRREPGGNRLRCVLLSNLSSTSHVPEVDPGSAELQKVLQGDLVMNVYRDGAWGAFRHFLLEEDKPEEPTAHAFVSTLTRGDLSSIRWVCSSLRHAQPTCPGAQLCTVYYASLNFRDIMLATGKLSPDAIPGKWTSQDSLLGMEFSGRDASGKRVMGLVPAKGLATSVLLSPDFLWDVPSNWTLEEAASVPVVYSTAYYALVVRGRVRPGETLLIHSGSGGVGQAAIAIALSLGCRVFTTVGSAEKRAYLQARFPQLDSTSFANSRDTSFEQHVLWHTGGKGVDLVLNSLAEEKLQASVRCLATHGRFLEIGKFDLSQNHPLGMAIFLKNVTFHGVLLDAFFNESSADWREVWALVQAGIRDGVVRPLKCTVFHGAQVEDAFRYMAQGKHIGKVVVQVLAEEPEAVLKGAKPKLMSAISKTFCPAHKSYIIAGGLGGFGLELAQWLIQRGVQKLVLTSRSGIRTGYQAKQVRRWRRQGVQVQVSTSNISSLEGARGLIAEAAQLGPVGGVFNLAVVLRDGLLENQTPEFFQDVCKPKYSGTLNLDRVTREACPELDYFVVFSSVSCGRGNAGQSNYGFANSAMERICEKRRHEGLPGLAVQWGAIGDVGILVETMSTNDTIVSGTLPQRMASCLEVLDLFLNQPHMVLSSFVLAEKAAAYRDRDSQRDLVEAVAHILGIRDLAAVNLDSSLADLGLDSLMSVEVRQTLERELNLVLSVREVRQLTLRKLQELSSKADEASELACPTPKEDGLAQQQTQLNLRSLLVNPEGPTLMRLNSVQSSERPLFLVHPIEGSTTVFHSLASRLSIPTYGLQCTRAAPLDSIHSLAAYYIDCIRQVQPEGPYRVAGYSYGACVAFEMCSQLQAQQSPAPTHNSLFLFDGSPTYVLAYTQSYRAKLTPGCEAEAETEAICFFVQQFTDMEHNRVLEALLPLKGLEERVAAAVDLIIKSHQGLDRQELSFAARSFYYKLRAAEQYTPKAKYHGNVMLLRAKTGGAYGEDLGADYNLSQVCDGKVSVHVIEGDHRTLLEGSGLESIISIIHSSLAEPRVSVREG
# assayOverview: inhibition of human FAS-TE enzyme activity – biochemical, endpoint fluorescence intensity, uHTS hits, dose response (AID 624327);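 note: fluorescence from hydrolysis of an O-methyl fluorescein acyl ester substrate by the enzyme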
# Type: functional
Activity calls are given as the source filed them.
propertyName: IC50

molecule="CCC(C)(C)C1CCc2n[nH]c(C(=O)NCCCNC(=O)OC(C)(C)C)c2C1 (stereo not given)" target="Fatty acid synthase (Homo sapiens)" readoutvalue="0.524 µM (active)"
molecule=O=C(CCNC(=O)c1ccc([N+](=O)[O-])cc1)NCc1ccccc1 target="Fatty acid synthase (Homo sapiens)" readoutvalue="11.3 µM (active)"
molecule=O=[N+]([O-])c1ccc2ncnc(N3CCN(Cc4ccc5c(c4)OCO5)CC3)c2c1 target="Fatty acid synthase (Homo sapiens)" readoutvalue="1.39 µM (active)"
molecule=CN(C)S(=O)(=O)c1ccc2c(c1)C(=O)c1cc(S(=O)(=O)N(C)C)ccc1CC2 target="Fatty acid synthase (Homo sapiens)" readoutvalue="0.176 µM (active)"
molecule=CCCCN=C(S)Nc1cc([N+](=O)[O-])ccc1C target="Fatty acid synthase (Homo sapiens)" readoutvalue="9.4 µM (active)"

* * *

# target: Short transient receptor potential channel 4 (Mus musculus)
# Sequence (Q9QUQ5 whole entry): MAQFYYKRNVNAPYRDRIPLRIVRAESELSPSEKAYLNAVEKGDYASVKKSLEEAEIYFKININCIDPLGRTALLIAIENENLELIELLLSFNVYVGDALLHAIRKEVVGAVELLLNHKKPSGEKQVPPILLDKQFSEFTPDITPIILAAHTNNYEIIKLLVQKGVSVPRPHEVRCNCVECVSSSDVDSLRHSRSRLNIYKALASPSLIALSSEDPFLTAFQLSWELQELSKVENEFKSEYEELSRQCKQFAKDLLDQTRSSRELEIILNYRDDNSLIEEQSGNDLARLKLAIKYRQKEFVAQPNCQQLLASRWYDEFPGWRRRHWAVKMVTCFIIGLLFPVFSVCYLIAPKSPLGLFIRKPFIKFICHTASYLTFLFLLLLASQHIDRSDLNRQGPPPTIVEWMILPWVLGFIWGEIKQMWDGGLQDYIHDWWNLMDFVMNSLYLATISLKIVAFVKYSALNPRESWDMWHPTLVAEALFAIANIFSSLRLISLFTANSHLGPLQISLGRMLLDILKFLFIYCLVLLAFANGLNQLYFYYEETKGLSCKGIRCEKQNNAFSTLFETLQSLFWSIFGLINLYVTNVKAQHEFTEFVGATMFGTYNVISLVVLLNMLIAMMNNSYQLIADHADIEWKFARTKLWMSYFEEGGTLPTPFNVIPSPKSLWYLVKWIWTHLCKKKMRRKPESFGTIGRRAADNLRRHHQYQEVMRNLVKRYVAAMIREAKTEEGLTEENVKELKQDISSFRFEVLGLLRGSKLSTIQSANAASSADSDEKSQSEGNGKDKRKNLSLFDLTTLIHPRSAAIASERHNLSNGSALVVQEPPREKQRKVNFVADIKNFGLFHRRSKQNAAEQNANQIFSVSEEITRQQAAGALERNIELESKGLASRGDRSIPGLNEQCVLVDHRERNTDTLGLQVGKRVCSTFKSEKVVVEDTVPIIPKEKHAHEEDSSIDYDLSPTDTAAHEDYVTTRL
# assayOverview: calcium entry via TRPC4 opening agents – cell-based, HEK293 TRPC4/mu-opioid, Fluo-4 calcium, dose response (AID 434937)
# Type: functional
Calls of active or inactive are those of the source.
# reported EC50; entries follow
propertyName: EC50

compound="Cc1ccc(CNC(=O)C2CCCN(Cc3cnn(-c4ccccc4)c3-n3cccc3)C2)cc1 (centres undefined)" propertyname=EC50 readoutvalue="4730 nM (active)"
compound="COc1ccc(C(CNC(=O)Cc2ccc(Cl)c(Cl)c2)N(C)C)cc1 (centres undefined)" propertyname=EC50 readoutvalue="299 nM (active)"
compound=O=C(COc1ccc(Br)cc1CNC1CCCC1)Nc1ccccc1 propertyname=EC50 readoutvalue="5960 nM (active)"
compound=CCCCN(CC)CCNC(=O)c1cc2cc3ccc(Cl)cc3nc2o1 propertyname=EC50 readoutvalue="596 nM (active)"
compound="COc1ccc(C(CNC(=O)c2ccccc2SC)N(C)C)cc1 (centres undefined)" propertyname=EC50 readoutvalue="473 nM (active)"
compound=CC(C)(C)c1cc(CCC(=O)NNC(=S)NC(=O)c2ccccc2)cc(C(C)(C)C)c1O propertyname=EC50 readoutvalue="3350 nM (active)"
compound="CN(C)C1(CNC(=O)CC(NC(=O)c2ccccc2Cl)c2ccccc2)CCCCC1 (centres undefined)" propertyname=EC50 readoutvalue="668 nM (active)"
compound="CN(C)C(CNc1ncnc2sc3c(c12)CCCC3)c1ccco1 (centres undefined)" propertyname=EC50 readoutvalue="3350 nM (active)"
compound=CNCCc1n[nH]c(N)n1 propertyname=EC50 readoutvalue="66.7 nM (active)"
